These measurements were taken from patent US20120121507A1.

Biological target: T1, recombinant human clusterin (human, UniProt P10909 23-449)
T1 construct: also called rhCLU; rh-clusterin
T1 sequence (P10909 23-449 limits assumed): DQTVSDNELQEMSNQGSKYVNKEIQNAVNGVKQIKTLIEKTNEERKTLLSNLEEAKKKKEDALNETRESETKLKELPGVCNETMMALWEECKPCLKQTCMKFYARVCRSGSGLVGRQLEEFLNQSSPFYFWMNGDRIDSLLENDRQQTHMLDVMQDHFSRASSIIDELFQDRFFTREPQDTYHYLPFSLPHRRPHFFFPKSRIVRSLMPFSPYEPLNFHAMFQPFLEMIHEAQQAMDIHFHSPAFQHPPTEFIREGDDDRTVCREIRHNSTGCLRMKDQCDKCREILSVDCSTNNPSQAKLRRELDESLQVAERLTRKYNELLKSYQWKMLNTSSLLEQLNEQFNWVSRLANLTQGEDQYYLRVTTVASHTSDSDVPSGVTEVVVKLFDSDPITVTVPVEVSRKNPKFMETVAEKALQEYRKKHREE
Test: SPR, rhCLU 0 nM to 1.4 µM over immobilized P3376 (150 RU), response at equilibrium, one-to-one binding model
Value kind: pKd
Here pKd is given on a logarithmic scale as minus log10 of the concentration in mol/L.

Looking up SHALPLTWSTAASGSGC (In SPR it was immobilised through the C-terminal Cys (thioether); In STD-NMR it was free in solution) [P3376 synthetic peptide (SHALPLTWSTAA with C-terminal SGSGC extension)] , I see its pKd listed as 6.47
